Experiment: folding stability dG unfold from chymotrypsin proteolysis; higher = more stable
Classification field: satisfied = folding stability dG unfold at or over 0.6 kcal/mol; not satisfied = folding stability dG unfold under 0.6 kcal/mol.

Previously resolved entries follow.
query: Can SAGGSAGGSDYKIEIEVEPMDPEDGYYQVELEIYDPNNGEPKEKIPVHMDSPEDAKDAIKELISAGGSAGGS [r12_26_TrROS] be said to have folding stability dG unfold at or above 0.6 kcal/mol?
result: not satisfied

query: Can SAGGSAGGSAGGSIEIIVRTPEMAKQMAKRIQKILADQGNPPPLKIEIHVIPPDDLPPWSAGGSAGGSAGGS [r4_472_TrROS] be said to have folding stability dG unfold at or above 0.6 kcal/mol?
result: not satisfied

query: Can SAGGPWHEQKHEITDPDDGKPIKISHTHYPDGYPRVRIELNNGKKIEFMVPPNGPPTPDQLLDAIKQFSAGG [r13_492_TrROS] be said to have folding stability dG unfold at or above 0.6 kcal/mol?
result: not satisfied

query: Can SAGGSAGGSAKSALDQMKGQKFTFYHPGGEQPVPITIEPDKDDNFVVKFPNKKPYPMPIDDISAGGSAGGSA [r18_169_TrROS] be said to have folding stability dG unfold at or above 0.6 kcal/mol?
result: not satisfied

query: Can SAGGSSSSTSTRIDPTTGEWVTSTSSFPVPPAPPYIEVRLDVPPEEAEALREKLLAEHPDLPVRLEASAGGS [r8_437_JUSTAS] be said to have folding stability dG unfold at or above 0.6 kcal/mol?
result: satisfied

Others:
query: Can SAGKPPPVKIEVNYRRTPDNSYRAEVQIRLPDGKPLFEVTYPFDNPDDPEARERFVRKARNLAKELANSAGG [r19_13_TrROS] be said to have folding stability dG unfold at or above 0.6 kcal/mol?
result: satisfied

query: Can SAGGIVPLPNGHWVIMAQFEVDEGQTVDDAPEFAREIAKTFGIKPTQVQVDPEKGYVNVAIKIPPGALSAGG [r13_178_TrROS] be said to have folding stability dG unfold at or above 0.6 kcal/mol?
result: not satisfied

query: Can SAMLKLEITLPDGTVVEVEIPLERPVPPAGEEEALAAAEAVREAVAAALGLEDAEVTMEVEEVSPEELLSAG [r14_378_JUSTAS] be said to have folding stability dG unfold at or above 0.6 kcal/mol?
result: satisfied

query: Can SAGGSAGGSAGMVIPSTSPEEAVEKLRELVEKRGDFLVDVKPTEVHPDGTVVIETKKKPLSAGGSAGGSAGG [r17_430_JUSTAS] be said to have folding stability dG unfold at or above 0.6 kcal/mol?
result: not satisfied

query: Can SAGGSAGGSPGPGTEVEVRYRHPATGRWYPGVAVFTPDGSIRVYFPALGTTVTVPPHTVEPVPSAGGSAGGS [r12_726_TrMRF] be said to have folding stability dG unfold at or above 0.6 kcal/mol?
result: satisfied

query: Can SAGGSAGGSAGMPIEKALEQADKNGRPVQIRVPNGRDIYITVKYKNGKYKIEIMPAEEIKSAGGSAGGSAGG [r17_463_TrROS] be said to have folding stability dG unfold at or above 0.6 kcal/mol?
result: satisfied

From: the supplement of paper PMC12764529
